Reference for the values: ChEMBL document CHEMBL1165981

TESTED SYSTEM: Thermolysin (Bacillus thermoproteolyticus)
Sequence (P00800 whole entry): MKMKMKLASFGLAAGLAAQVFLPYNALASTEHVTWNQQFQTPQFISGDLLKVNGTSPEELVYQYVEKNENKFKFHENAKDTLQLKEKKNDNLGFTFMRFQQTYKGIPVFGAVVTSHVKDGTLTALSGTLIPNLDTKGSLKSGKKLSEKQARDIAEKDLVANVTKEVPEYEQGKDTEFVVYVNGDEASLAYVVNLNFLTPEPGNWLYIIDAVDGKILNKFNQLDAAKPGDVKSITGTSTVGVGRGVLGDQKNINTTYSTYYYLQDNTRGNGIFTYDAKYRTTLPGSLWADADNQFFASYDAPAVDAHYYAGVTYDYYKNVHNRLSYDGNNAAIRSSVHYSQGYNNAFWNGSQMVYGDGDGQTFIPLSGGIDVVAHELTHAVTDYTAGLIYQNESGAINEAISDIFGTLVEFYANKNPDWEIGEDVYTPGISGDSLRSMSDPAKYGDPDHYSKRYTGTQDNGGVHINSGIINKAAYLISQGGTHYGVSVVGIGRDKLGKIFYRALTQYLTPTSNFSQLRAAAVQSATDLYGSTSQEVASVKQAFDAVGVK
EXPERIMENT SUMMARY: Inhibition of Bacillus thermoproteolyticus thermolysin after 15 mins by microplate spectrophotometric analysis in presence of 0.5 to 2 mM substrate FaGLa
MEASURE: log10(Ki) (log10 of the value in µM)
Scale type: logarithmic (base 10). Underlying Ki unit: µM.

{"CHEM SMILES": "Nn1c(-c2ccc([N+](=O)[O-])cc2)nc2ccccc2c1=O", "log10(Ki)": 3.49}

Query: log10(Ki); subject: "Nn1c(-c2ccc(Cl)cc2)nc2ccccc2c1=O"
4.00

Next up: "Nn1c(C(F)(F)F)nc2ccccc2c1=O"
1.58
